This collection of values is drawn from the supplement of paper PMC4466140.

Target: CaSho1
Experiment: SPOT peptide array binding signal intensity (averaged, normalized) (arbitrary units (background-subtracted, floor 0; scale differs between SH3 domains)); higher = stronger binding of the SH3 domain to the peptide
We begin with a simple list: items and their reported SPOT peptide array binding signal intensity.
Answer using only a numeral; do not append any unit.

Return value of SPOT peptide array binding signal intensity for input LRWRHKFFLPAIAAI , no commentary.
228

Identify measured SPOT peptide array binding signal intensity associated with PSPSSSPPPIPKTAN
5

Specify reported SPOT peptide array binding signal intensity for the binder shown: RMVRRRPLRVQFSAR
1620

Quick one: give measured SPOT peptide array binding signal intensity for WRPRIVPILPYITRL
298
